test-protocol: inhibitors of PAF-induced NFkB signaling in CF airway cells, dose response, cell-based, uHTS hits, panel, cytotoxicity readout (AID 624344)
measurement-parameters: CF bronchial epithelial cells, PAF-induced NFkB reporter inhibition, with PAF, run 1; at 79 µM (top of the series) unless noted
readout: inhibition (%)
Give the value, in units of %, as a plain number.

>  <structure-smiles-string>
Cc1csc(CNc2ncnc3ccc(-c4ccoc4)cc23)c1

>  <measurement>
111

$$$$
>  <structure-smiles-string>
O=C(Oc1cc2oc(=O)cc(-c3ccccc3)c2cc1Cl)C1CCCCC1

>  <measurement>
113

$$$$
>  <structure-smiles-string>
Clc1cncc(Cl)c1N/N=C/c1ccncc1

>  <measurement>
105

$$$$
>  <structure-smiles-string>
COc1ccc(-c2cc(=O)oc3cc(OC(=O)C4CCCCC4)ccc23)cc1

>  <measurement>
110

$$$$
>  <structure-smiles-string>
COc1ccc(-n2nc(C(=O)NCC(=O)Nc3cc(OC)c(OC)c(OC)c3)c3ccccc3c2=O)cc1OC

>  <measurement>
102

$$$$
>  <structure-smiles-string>
CCOc1ccc(-n2c(C)c(C(C)=O)c3cc(OC(C)=O)ccc32)cc1

>  <measurement>
89

$$$$
>  <structure-smiles-string>
NC(=O)N/N=C/c1c(Sc2nnnn2-c2ccccc2)nc2ccccn2c1=O

>  <measurement>
103

$$$$
>  <structure-smiles-string>
COc1ccc(-c2cnc3c(NC=O)cc(-c4ccccc4OC)cn23)cc1OC

>  <measurement>
93.5

$$$$
>  <structure-smiles-string>
COc1ccccc1NS(=O)(=O)c1ccc(-c2cnc(C3CC3)o2)cc1

>  <measurement>
82.8

$$$$

-- ask Identify measured inhibition corresponding to C[C@@H]1CN([C@H](C)CO)C(=O)c2cc(NC(=O)Nc3ccc(C(F)(F)F)cc3)ccc2O[C@H]1CN(C)S(=O)(=O)c1ccc(Cl)cc1
-- reply 86.7

###

target: Tumor necrosis factor receptor superfamily member 10B (Homo sapiens)
test-protocol: caspase-8 TRAIL sensitization, hit retest, confirmation, cell-based, NB7+caspase-8, with/without TRAIL, luminescence panel (AID 651596)
measurement-parameters: NB7 neuroblastoma + caspase-8, TRAIL sensitization, luminescence viability, with TRAIL, mean of runs, at 10 µM, stronger effect = higher value
readout: activity (%)
Supply the numeric figure in %, leaving out any unit text.

>  <molecule>
Cc1cc(C)c(C)c(S(=O)(=O)N2CCN(c3ncnc4ccccc34)CC2)c1C

>  <activity, %>
40.2

$$$$

// below: activity requested for another molecule
-- ask Assign activity to the following record: CCCCCCCCCCCCCCCC[N+](C)(C)Cc1ccc(F)cc1
-- reply 80.7

###

test-protocol: inhibition of Brca1/Bard1 split-luciferase complementation, confirmation, counter-screen for Mdm2/MdmX interaction inhibitor project, luminescence, single concentration (AID 504668)
measurement-parameters: Brca1/Bard1 bimolecular luciferase complementation counterscreen, at 8 µM, stronger effect = higher value
Classification field: enter Condition met for inhibition values not below 30%, Condition not met for values below it.

Past entries and their recorded results:
>  <molecule>
Cc1cc(C(=O)COC(=O)c2ccccc2O)c(C)n1CC1CCCO1 (stereo unspecified)

>  <category-label>
Condition met

$$$$
>  <molecule>
C(=N\Nc1nc(-c2ccccn2)nc2ccccc12)/c1ccccc1

>  <category-label>
Condition not met

$$$$
>  <molecule>
COc1cc2c(O)c3c(c(-c4ccc5c(c4)OCO5)c2cc1OC)C(=O)OC3

>  <category-label>
Condition not met

$$$$
>  <molecule>
N/C(=N\NC(=O)c1sccc1OCc1ccc(Cl)cc1Cl)c1ccccn1

>  <category-label>
Condition met

$$$$
>  <molecule>
Clc1cc2cccnc2c2ncccc12

>  <category-label>
Condition met

$$$$

-- ask Does inhibition meet or surpass 30% for Cc1ccc(O)c(N=Nc2nccs2)c1 ?
-- reply Condition not met

-- ask Hi, just wondering whether COC(=O)Cc1[nH]n(-c2nc3ccccc3s2)c(=O)c1C(C)=Nc1ccc(C)cc1 shows inhibition of 30% or higher.
-- reply Condition met

-- ask In plain terms: is recorded inhibition at least 30% for CC(Oc1ccc(F)cc1)C(=O)Nc1nc(-c2ccccn2)cs1 (stereo unspecified) ?
-- reply Condition met

-- ask Confirm if inhibition reported for the molecule CCOC(=O)CSC1=NC(=O)/C(=C/c2ccc(OC)cc2)S1 is 30% or above.
-- reply Condition met

-- ask Decide: inhibition of Oc1c(CN2CCCC2)cc(COCc2ccccc2)c2cccnc12 >= 30%?
-- reply Condition met

-- ask Quick check, inhibition >= 30%? C=C1C(O)[C@@H]2O[C@]3(CC[C@H](/C=C/C(C)[C@@H]4CC(C)=CC5(O[C@H](C[C@@](C)(O)CO)CCC5O)O4)O3)CC[C@H]2O[C@@H]1C(O)CC(C)[C@H]1OC2(CCCCO2)CCC1C (stereo partly specified)
-- reply Condition met

-- ask Textbook exercise: given the entry Cc1cc(SCC(=O)N/N=C/c2ccc(O)cc2O)nc2ccccc12 , state whether its inhibition is greater than or equal to 30%.
-- reply Condition met

-- ask API: above_or_equal(metric=inhibition, cutoff=30%) for item CCn1c(Oc2ccccc2F)nc2c1c(=O)n(C)c(=O)n2C
-- reply Condition not met

###

# inhibition values compiled below
target: PEG-3 (UniProt Q6IN02)
Sequence (Q6IN02 whole entry, looked up): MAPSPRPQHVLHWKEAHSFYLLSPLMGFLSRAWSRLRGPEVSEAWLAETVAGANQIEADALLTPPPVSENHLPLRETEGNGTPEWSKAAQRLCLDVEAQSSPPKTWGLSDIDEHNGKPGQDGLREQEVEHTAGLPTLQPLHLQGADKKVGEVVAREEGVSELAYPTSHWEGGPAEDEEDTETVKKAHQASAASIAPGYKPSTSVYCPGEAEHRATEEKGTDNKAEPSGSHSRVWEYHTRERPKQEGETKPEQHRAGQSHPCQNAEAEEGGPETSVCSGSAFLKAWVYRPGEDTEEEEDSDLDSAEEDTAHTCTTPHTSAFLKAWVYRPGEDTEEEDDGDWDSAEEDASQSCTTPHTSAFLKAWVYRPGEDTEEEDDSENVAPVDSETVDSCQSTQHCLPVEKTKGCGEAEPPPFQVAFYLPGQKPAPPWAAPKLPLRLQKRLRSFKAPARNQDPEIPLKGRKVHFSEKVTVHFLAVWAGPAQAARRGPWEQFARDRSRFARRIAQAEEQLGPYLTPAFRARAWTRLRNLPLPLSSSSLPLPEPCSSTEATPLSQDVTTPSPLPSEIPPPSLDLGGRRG
test-protocol: Peg3 promoter luciferase inhibitors, potency, dose response, cell-based, HeLa, CREF/GAPDH counter-screen panel (AID 624167)
measurement-parameters: CREF/GAPDH counter-screens; HeLa PEG-Prom luciferase reporter, overnight, run 2, dose range 1, at 100 µM (top of the series) unless noted
Please reply with the bare figure in % and do not write the unit itself.

-- ask Identify measured inhibition associated with CCN(CC)CCNC(=O)c1ccc(NC(=O)c2cccc(S(=O)(=O)N(C)C3CCCCC3)c2)cc1
-- reply 102

-- ask Specify reported inhibition for the compound shown: CCOc1cc(CNCCO)cc(Br)c1OCc1ccccc1Cl
-- reply 99.1

-- ask Please report the measured inhibition for O=C(O)c1cccc(COc2ccccc2Cl)c1
-- reply 87.5

-- ask Indicate the recorded inhibition value for this compound: CCN1C(=O)C(=Cc2cccc(OC)c2Oc2ccc([N+](=O)[O-])cc2[N+](=O)[O-])SC1=S
-- reply 46.1

-- ask Give the measured inhibition for CC(=O)NC(c1ccc(Cl)cc1Cl)c1ccc2cccnc2c1O (centres undefined)
-- reply 96.7

-- ask Check the records and state inhibition for CCOC(=O)CN(C(=O)CSc1nnc2c(n1)[nH]c1ccc(F)cc12)c1ccccc1
-- reply 99.2

-- ask Supply measured inhibition of Cc1cc(Br)ccc1NC(=O)CN1C(=O)C2C3CC(c4ccccc4)C(C3)C2C1=O (centres undefined) in your reply.
-- reply 92.1

-- ask Item CC1(C(=O)NCc2cccc3ccccc23)CCN1C(=O)Cc1ccc(-c2ccccc2)cc1 (centres undefined) : provide inhibition
-- reply 43.6

###

test-protocol: inhibitors of PAF-induced NF-kB signaling, retest, confirmation, cell-based, GFP fluorescence, single concentration (AID 602472);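 note: stimulus PAF is a Pseudomonas aeruginosa filtrate and not platelet activating factor; plate controls were DMSO wells with stimulus for no effect and unstimulated DMSO wells for full effect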
measurement-parameters: KKLEB CF airway cells, overnight, at 5 µM, stronger effect = higher value
This is one part of the list.
readout: inhibition (%)
Hi! Could you send only the number? It should be in %, unit omitted.

Completed entries (count: 10):
>  <compound>
Cc1ccc(NC(=O)Nc2nnc(-c3ccncc3)s2)cc1

>  <unit-of-measurement>
%

>  <inhibition>
59.6

$$$$
>  <compound>
O=C1OC(Oc2ccc(Br)cc2)(c2ccccc2)c2ccccc21 (centres undefined)

>  <unit-of-measurement>
%

>  <inhibition>
4.99

$$$$
>  <compound>
Cc1nnc(NC(=O)Nc2ccc(Cl)c(Cl)c2)s1

>  <unit-of-measurement>
%

>  <inhibition>
68

$$$$
>  <compound>
Cc1cccc2sc(N(CCCN(C)C)C(=O)CCS(=O)(=O)c3ccccc3)nc12

>  <unit-of-measurement>
%

>  <inhibition>
84.3

$$$$
>  <compound>
C#CCN(C[C@@H]1[C@@H](OC(=O)NC2CC2)[C@@H](OC(=O)NC2CC2)Cn2c(=O)ccc(=O)n21)S(=O)(=O)c1ccc(C)cc1

>  <unit-of-measurement>
%

>  <inhibition>
61.6

$$$$
>  <compound>
O=C(CCl)Nc1cccc(CP(=O)(c2ccccc2)c2ccccc2)c1

>  <unit-of-measurement>
%

>  <inhibition>
-20.6

$$$$
>  <compound>
CC(C)C[C@H]1CNC(=S)N1C[C@H]1CCCN1C[C@H](Cc1ccc(O)cc1)N1C[C@H](Cc2ccc(O)cc2)N(CC2CCCCC2)C1=S

>  <unit-of-measurement>
%

>  <inhibition>
56.7

$$$$
>  <compound>
O=C(Nc1ccc(Cl)cc1)Nc1nnc(/C=C/c2ccccc2)s1

>  <unit-of-measurement>
%

>  <inhibition>
50.8

$$$$
>  <compound>
COc1cc(C2c3cc4c(cc3C(O)C3COC(=O)C23)OCO4)cc(OC)c1OC (centres undefined)

>  <unit-of-measurement>
%

>  <inhibition>
83.3

$$$$
>  <compound>
CC(C)CC1C(=O)N(Cc2cn(Cc3ccco3)nn2)CCS(=O)(=O)N1Cc1ccc(-c2ccc(Cl)c(Cl)c2)cc1 (centres undefined)

>  <unit-of-measurement>
%

>  <inhibition>
45.6

$$$$

Now consider the entry below.
-- ask // fetch inhibition given entry Cc1cccc(CS(=O)(=O)c2ncc(Cl)c(C(=O)Nc3ccc(F)cc3)n2)c1
-- reply 44

Data provenance is PubChem BioAssay.
